# Tested on: MOLT-4 leukemia
# METHOD_NOTES: NCI-60 one-dose screen, 48 h (100 = growth as untreated, 0 = no growth, -100 = all killed)
# COND: 10 µM unless noted
This is part of a sample that, as a whole, favours compounds with a hit. Of some 83,000 tested, about 20% had one in any assay.
growth vs 60%: at or above is TRUE, below is FALSE.

* CCCCCCCCCCCCC1CCC/C=C\CCC(=O)O1 (stereo not given) | FALSE
* O=C1/C(=C/c2ccc(O)cc2)COc2ccc(-c3ccccc3)cc21 | FALSE
* O=C(CN1CCOCC1)Nc1ccc2ncnc(Nc3ccc(Oc4cccc(F)c4)c(Cl)c3)c2c1 | TRUE
* NS(=O)(=O)c1cccc(NC(=O)C(=O)C2C(=O)Nc3ccccc32)c1 (stereo not given) | TRUE
* COc1ccc(-c2nc(SCCC(C)C)nc(N/N=C(/C)c3ccc(C)cc3)c2C#N)cc1 | TRUE
* CC(=O)c1c[nH]c2ccc(-c3ccnc(Nc4ccc(NC(=O)C5CCCC5)c(CN5CCOCC5)c4)n3)cc12 | FALSE
* CCCCCCCCCCCCCCCC(=O)OC[C@@]1(O)C[C@@]23CC[C@@H]4C(C)(C)CCC[C@@]4(C)[C@@H]2CC[C@H]1C3 | FALSE
* CC(=O)[C@@H]1CC[C@]2(C(=O)n3ccnc3)CC[C@]3(C)[C@H](CC[C@@H]4[C@@]5(C)Cc6c([nH]c7ccccc67)C(C)(C)[C@@H]5CC[C@]43C)[C@@H]12 | TRUE
* CC(=O)c1cc2c(N)c(C(=O)Nc3cncc4ccccc34)sc2nc1C | TRUE
* COc1ccc(C2CC(c3cccc(Nc4ccncc4)c3)=NN2c2ccc(Cl)cc2)cc1 (stereo not given) | FALSE
* NC(=O)c1ncn(C2OC(CO)C(O)C2O)n1 (stereo not given) | FALSE
* COc1ccc(C(=O)c2cc3c(N)c(C(=O)Nc4cccc(Cl)c4C)sc3nc2C)cc1 | FALSE
* Fc1ccc(C2CC(c3cccc(Nc4ccncc4)c3)=NN2c2ccccc2)cc1 (stereo not given) | FALSE
* COc1ccc(-c2ncc(-c3ccccc3)[nH]2)cc1OC | FALSE
* Cc1ccc(-c2csc(/N=C3\C(=O)Nc4ccccc43)n2)cc1 | FALSE
* O=C(O)c1cn(C2CC2)c2cc(N3CCN(C(=O)C[n+]4cccc5ccccc54)CC3)c(F)cc2c1=O | FALSE
* COc1cc2nnn3c4ncccc4c(N=O)c3c2cc1OC | FALSE
* CC(=O)c1c(C)[nH]c(-c2nc3ccc(N4CCN(C)CC4)cc3[nH]2)c1-c1ccccc1 | FALSE
* Clc1ccc(N2N=C(c3cccc(Nc4ccncc4)c3)CC2c2ccc(Br)cc2)cc1 (stereo not given) | FALSE
* CC(C)CCSc1nc(NNC(N)=O)c(C#N)c(-c2ccccc2)n1 | TRUE

###

List of growth values.
# System: MCF7 breast
# METHOD_NOTES: NCI-60 one-dose screen, 48 h (100 = growth as untreated, 0 = no growth, -100 = all killed)
# COND: 10 µM unless noted
About 83,000 compounds went through this panel and 20% of them were active in at least one assay; those are over-represented in the sample as a whole. The source made the active and inactive calls. The calls were made as follows: active = growth percent below 10; inactive = the rest.
QUANTITY: growth

- COc1ccc(-c2nn(Cc3ccccc3)c3c2-c2oncc2CC3)cc1OC: 87.7% (inactive)
- CC1=CC2(C)/C=C(C)/C=C\CC(O)/C=C3/C=CC(=C4C(=O)OC2(CC1C)C4=O)OC3 (stereo not given): -21.9% (active)
- CCc1c(Nc2ccc(C)cc2)nc(N)[nH]c1=O: 93.7% (inactive)
- O=C(NNc1nc(Cl)nc(N2CCN(C(c3ccccc3)c3ccccc3)CC2)n1)c1ccccc1: 82.5% (inactive)
- CCOC(=O)Oc1c(OC)cc(C(=O)O[C@@H]2C[C@@H]3CN4CCc5c([nH]c6cc(OC)ccc56)[C@H]4C[C@@H]3[C@H](C(=O)OC)[C@H]2OC)cc1OC: 83.8% (inactive)
